System: MCF7
Assay: Cytotoxicity against human MCF7 cells assessed as reduction in cell viability by resazurin microplate assay
Format: functional, cell-based
Details: mcf7
PARAMETER MEASURED: IC50

Guide cases for IC50, answers given:
{"STRUCTURE STRING": "COc1cc2c(c(OC)c1)C(=O)O[C@@H](C)CCC[C@H](O)CCCCC2", "IC50": "Not Active"}
{"STRUCTURE STRING": "COc1cc2c(c(OC)c1)C(=O)O[C@@H](C)CCC[C@H](O)CCC/C=C/2", "IC50": "Not Active"}
{"STRUCTURE STRING": "COc1cc(O)c2c(c1)/C=C/CCCC(=O)CCC[C@H](C)OC2=O", "IC50": "Not Active"}
{"STRUCTURE STRING": "CCC(=O)Oc1cc2c(c(OC(=O)CC)c1)C(=O)O[C@@H](C)CCCC(=O)CCC/C=C/2", "IC50": "Not Active"}

Shifting focus to the compound that follows.
input: Determine from records and report IC50 for COc1cc(O)c2c(c1)/C=C/CCC[C@H](O)CCC[C@H](C)OC2=O
output: Not Active
